Tested on: Trypanosoma cruzi
experiment_summary: Trypanosoma cruzi phosphomannomutase and mannose-1-phosphate guanylyltransferase assay
Type: functional
Parameters: scale not given: direction of the effect not stated beside the values
protocol_conditions: 10 µM
Please respond with reported Percent Effect for every item in the list.
Give bare numbers, in %.

Example molecules with recorded Percent Effect:
molecule	measured_number
CC(C)N(Cc1cccc(F)c1)Cc1nc2c(cnn2C)c(=O)[nH]1	0.469
CC(C)c1cc(N2CCN(c3ccc(O)cc3)CC2)n2nccc2n1	-0.873
CC(C)(O)CN1CCN(C(=O)c2cccnc2O)CC1	7.98

State recorded Percent Effect for all listed molecules.
1. COc1cccc(OC)c1C(=O)N1CCN(c2ccccc2F)CC1
2. Cc1cccnc1CNCC1(O)CCCN(CC2CCCCC2)C1=O (stereo unspecified)

[A]
1: -4.34; 2: -2.04

[Q] Any idea what Percent Effect was measured for "O=C1CO[C@@H]2CN(Cc3cccs3)C[C@H]2N1CC1CC1" ?
[A] 2.04

From: ChEMBL document CHEMBL3988442
